# System: Mycobacterium tuberculosis
# Assay Details: Antimycobacterial activity against multidrug resistant Mycobacterium tuberculosis after 3 to 7 days by rapid direct susceptibility test
# Assay type: functional
Labelling: MIC90 reported below 1 mg/L becomes criterion met; at or above becomes criterion not met.

>  <Molecule>
CO/N=C1\C(=O)N(CCn2cc(CN3CCN(c4c(F)cc5c(=O)c(C(=O)O)cn(C6CC6)c5c4OC)CC3C)nn2)c2ccc(Cl)cc21 (stereo not given)

>  <Target Or System>
Mycobacterium tuberculosis

>  <Label Class>
criterion met

$$$$
>  <Molecule>
CO/N=C1\C(=O)N(CCn2cc(CN3CCN(c4c(F)cc5c(=O)c(C(=O)O)cn(C6CC6)c5c4OC)CC3C)nn2)c2ccc(F)cc21 (stereo not given)

>  <Target Or System>
Mycobacterium tuberculosis

>  <Label Class>
criterion met

$$$$
>  <Molecule>
COc1c(N2CCN(Cc3cn(CCN4C(=O)/C(=N\O)c5cc(C)ccc54)nn3)C(C)C2)c(F)cc2c(=O)c(C(=O)O)cn(C3CC3)c12 (stereo not given)

>  <Target Or System>
Mycobacterium tuberculosis

>  <Label Class>
criterion not met

$$$$
>  <Molecule>
COc1c(N2CCN(Cc3cn(CCN4C(=O)C(=O)c5ccccc54)nn3)C(C)C2)c(F)cc2c(=O)c(C(=O)O)cn(C3CC3)c12 (stereo not given)

>  <Target Or System>
Mycobacterium tuberculosis

>  <Label Class>
criterion not met

$$$$
>  <Molecule>
COc1c(N2CCN(Cc3cn(CCN4C(=O)C(=O)c5cc(Cl)ccc54)nn3)C(C)C2)c(F)cc2c(=O)c(C(=O)O)cn(C3CC3)c12 (stereo not given)

>  <Target Or System>
Mycobacterium tuberculosis

>  <Label Class>
criterion met

$$$$
>  <Molecule>
CO[C@H]1/C=C/O[C@@]2(C)Oc3c(C)c(O)c4c(O)c(c(/C=N/N5CCN(C)CC5)c(O)c4c3C2=O)NC(=O)/C(C)=C\C=C\[C@H](C)[C@H](O)[C@@H](C)[C@@H](O)[C@@H](C)[C@H](OC(C)=O)[C@@H]1C

>  <Target Or System>
Mycobacterium tuberculosis

>  <Label Class>
criterion not met

$$$$
>  <Molecule>
CO/N=C1\C(=O)N(CCn2cc(CN3CCN(c4c(F)cc5c(=O)c(C(=O)O)cn(C6CC6)c5c4OC)CC3C)nn2)c2ccc(C)cc21 (stereo not given)

>  <Target Or System>
Mycobacterium tuberculosis

>  <Label Class>
criterion met

$$$$
>  <Molecule>
NNC(=O)c1ccncc1

>  <Target Or System>
Mycobacterium tuberculosis

>  <Label Class>
criterion not met

$$$$
>  <Molecule>
COc1c(N2CCN(Cc3cn(CCN4C(=O)/C(=N\O)c5cc(Cl)ccc54)nn3)C(C)C2)c(F)cc2c(=O)c(C(=O)O)cn(C3CC3)c12 (stereo not given)

>  <Target Or System>
Mycobacterium tuberculosis

>  <Label Class>
criterion not met

$$$$
>  <Molecule>
COc1c(N2CCN(Cc3cn(CCN4C(=O)/C(=N\O)c5ccccc54)nn3)C(C)C2)c(F)cc2c(=O)c(C(=O)O)cn(C3CC3)c12 (stereo not given)

>  <Target Or System>
Mycobacterium tuberculosis

>  <Label Class>
criterion not met

$$$$
>  <Molecule>
COc1c(N2CCN(Cc3cn(CCN4C(=O)C(=O)c5cc(F)ccc54)nn3)C(C)C2)c(F)cc2c(=O)c(C(=O)O)cn(C3CC3)c12 (stereo not given)

>  <Target Or System>
Mycobacterium tuberculosis

>  <Label Class>
criterion met

$$$$
